What TGI was measured for each of the following?
Test system: HL-60(TB) leukemia
experimental_protocol: NCI tumour cell line growth inhibition, 48 h

Reported TGI ( `CC(=O)Oc1c(C(=O)[O-])cc(C(C)C)cc1C(C)C.CC(=O)Oc1c(C(=O)[O-])cc(C(C)C)cc1C(C)C.CC(=O)Oc1c(C(=O)[O-])cc(C(C)C)cc1C(C)C.CC(=O)Oc1c(C(=O)[O-])cc(C(C)C)cc1C(C)C.[Cu+2].[Cu+2]` ) = 81.9 µM

The compound identified as O=C1C(Cl)N(c2ccccc2Cl)C1c1c[nH]c2ccccc12 (stereo not given) registered its TGI at > 100 µM

Reported TGI ( COC(=O)c1cc(S(=O)(=O)NC2=NCC(C)NN2)c(S)cc1Cl (stereo not given) ) = > 100 µM

TGI for Fc1ccc(NC(c2ccc(F)cc2)C2CCN(CCCCc3ccccc3)CC2)cc1 (stereo not given) is 3.54 µM

Just so you know, measured TGI for `COc1ccc(/C=C2\CCC/C(=C\c3ccc(OC)c(OC)c3)C2=O)cc1OC` came out at > 32.5 µM

So, `Nc1nccc(-c2c(-c3ccc(F)cc3)nn3cc(C(F)(F)F)ccc23)n1` ? Its TGI was > 25 µM

get_value(item= `O=C1c2ccccc2C(=O)c2c(NC3CCCCC3)ccc(Nc3ccc(S(=O)(=O)O)cc3)c21` , readout=TGI) returns 99.8 µM

For record CC12OC(=O)C(C#N)C1(C)C1C(=O)CCCC12 (stereo not given) the listed TGI is > 100 µM

The compound listed as CC(=O)Nc1ccc(C2CC(c3ccc([N+](=O)[O-])cc3)=Nc3ccccc3S2=O)cc1 (stereo not given) shows TGI equal to 42.2 µM

Per the record, `O=C(NCCN(CCNC(=O)c1cccc(O)c1O)CCNC(=O)c1cccc(O)c1O)c1cccc(O)c1O` has TGI of > 100 µM

Data point: `COc1ccc(-c2cc(/C=C/C(=O)c3ccc(N)cc3)[nH]n2)cc1OC` ; TGI = > 100 µM

GET /value?item= `COc1cc(/C=C/c2csnn2)cc(OC)c1OC` &field=TGI returns > 100 µM

The compound listed as `O=C(c1ccccc1)C1(Br)S(=O)(=O)OCCOS1(=O)=O` shows TGI equal to > 100 µM

The reported TGI of the compound CCOC(=O)C1(C)CCC(C(C(=O)O)C(=O)O)CC1=O (stereo not given) was > 100 µM

Looking up `COc1ccc2c(C(=O)O)cc3ccccc3c2c1OC` , I found its TGI recorded as > 100 µM

###

Test system: HCT-116 colon
experimental_protocol: NCI tumour cell line growth inhibition, 48 h
reported_metric: TGI

For reference, reported TGI for `CC(=O)Oc1c(C(=O)[O-])cc(C(C)C)cc1C(C)C.CC(=O)Oc1c(C(=O)[O-])cc(C(C)C)cc1C(C)C.CC(=O)Oc1c(C(=O)[O-])cc(C(C)C)cc1C(C)C.CC(=O)Oc1c(C(=O)[O-])cc(C(C)C)cc1C(C)C.[Cu+2].[Cu+2]` stands at > 100 µM

// recorded TGI for `Cc1cc(C)c(-c2no/c(=N\S(=O)(=O)c3ccc(Cl)cc3)o2)c(C)c1` : > 100 µM

The compound listed as NC1=NC2(COC(c3ccccc3)(c3ccccc3)c3ccccc3)OC(COC(c3ccccc3)(c3ccccc3)c3ccccc3)C(O)C2O1 (stereo not given) shows TGI equal to > 100 µM

Lab book: TGI of `CC(C)[C@@H]1CC[C@]2(CO2)[C@@H]2C(=O)OCC(C(=O)O)=C[C@H]21` noted as > 100 µM

Per the record, `O=C(O)CN(CCN(CC(=O)O)CC(=O)O)CC(=O)O.[Mn+2]` has TGI of > 100 µM

For `COC(CN(C)C(=S)Nc1cccc2ccccc12)OC` the compound record lists TGI as > 10 µM

Reported TGI ( CCN(/C=C1/C(=O)C(c2ccccc2)N(c2ccccc2)C1=O)CC (stereo not given) ) = > 10 µM

Reported TGI for O=C1C2C3C=CC(C2C(=O)N1CO)C1C2C(=O)N(CO)C(=O)C2C31 (stereo not given) was > 59.8 µM

For this compound ( `NNc1nnc(CCCCCCCCc2nnc(NN)n2N)n1N` ), measured TGI is > 100 µM

Sure, the documented TGI for COC(=O)[C@@]12OC[C@]34C([C@@H](O)C1O)[C@@]1(C)CC(=O)C(OC(=O)CC(C)C(F)(F)F)=C(C)C1C[C@H]3OC(=O)[C@H](O)[C@H]42 (stereo not given in full) is > 62.5 µM

###

For each of the compounds below, state its TGI.
Tested on: U251 CNS
experimental_protocol: NCI tumour cell line growth inhibition, 48 h
Where a SMILES comes first, the peptide text is derived from it. Bridges are numbered along the chain shown (N, C = ends). [ ]: non-standard residue; d: D form. aThr = C[C@H](O)[C@H](N)C(=O)O

Recorded result, CC(C)C[C@@H]1NC(=O)[C@@H]2CCCN2C(=O)[C@@H]2CCCN2C(=O)[C@H](CC(C)C)NC(=O)[C@H](CO)NC(=O)[C@H](CCCCN)NC(=O)[C@H]([C@H](C)O)NC(=O)[C@@H]2CSSC[C@@H](NC1=O)C(=O)N[C@@H](Cc1ccccc1)C(=O)N1CCC[C@H]1C(=O)N[C@@H](CC(=O)O)C(=O)NCC(=O)N[C@@H](CCCN=C(N)N)C(=O)N2 (cyclo(C[aThr]KSLPPL[dC]FPDGR); disulfide 1-9) , TGI: > 50 µM

Form: compound = O=C(c1ccc(Cl)cc1)C1OC12C(=O)Nc1c(Cl)cc(Cl)cc12 (stereo not drawn) ; TGI = > 100 µM

Record CC(C)Cc1ccc(C(C)/C=C2\CCC(CN(C)C)C2=O)cc1 (stereo not drawn) , field TGI: 30.4 µM

###

System: PC-3 prostate
experimental_protocol: NCI tumour cell line growth inhibition, 48 h
Consider the following compounds; for each one, report its TGI.
A number alone suffices; assume µM.

Noted for `OCCCCC#Cc1ccccc1C#Cc1cccc(C(F)(F)F)c1` : its TGI reads 33.7

The compound identified as `CN1CCN(c2c(F)cc(NC3=C(Cl)C(=O)c4ncccc4C3=O)cc2F)CC1` registered its TGI at 21.1

# TGI (compound: `CCOC(=O)/C(=C\c1cccc(C)c1)C(C)=O` ) is 28.3

Field TGI (entry `Clc1ccc(C=Nc2ccc(Oc3ccc(Cl)cc3)c(Cl)c2)cc1` ) reads 69.8

TGI reported for this compound `COC(=O)c1cc2c(cc1Cl)Sc1nnc(Nc3ccccc3)n1S2(=O)=O` : 10

###

Would you mind telling me the reported TGI of each entry?
Tested on: PC-3 prostate
experimental_protocol: NCI tumour cell line growth inhibition, 48 h

// recorded TGI for `CCN(CC)CCNc1ccc([N+](=O)[O-])c2nc3ccc(OC)cc3c(NCCN(CC)CC)c12` : 2.1 µM

In plain terms, `Cc1ccc(S[C@@](C=O)(NC(=O)OCc2ccccc2)C(F)(F)F)cc1` has a documented TGI of 54.9 µM

# TGI of `[O]=[V]([OH])([OH])[OH]` = > 100 µM

Looking up CCN(/C=C1/C(=O)C(c2ccccc2)N(c2ccccc2)C1=O)CC (stereo not drawn) , I found its TGI recorded as > 10 µM

In plain terms, C=C1CC[C@@H](CCC2CCC3(OC2)O[C@]2(O)CC[C@@]3(C)OC2(C)C)C(C)(C)[C@H]1C/C=C1\CCOC1=O (stereo partly drawn) has a documented TGI of 93.9 µM

Reported TGI for `CSC(=O)/C=C1\SS/C(=C\C(=O)SC)S1` was 9.32 µM

// field: TGI; key: Fc1ccc(NC(c2ccc(F)cc2)C2CCN(CCCCc3ccccc3)CC2)cc1 (stereo not drawn) ; value = 3.76 µM

Sure, the documented TGI for `COC(CN(C)C(=S)Nc1cccc2ccccc12)OC` is > 10 µM

Briefly, TGI measured for `CC(C)(C)OC(=O)N(CCCCNC(=O)C(F)(F)F)CCCNC(=O)C(F)(F)F` : > 100 µM

The value of TGI measured for the compound `O=C(Nn1c(-c2ccccc2)nc2ccccc2c1=O)c1ccc(Cl)cc1` turned out to be > 100 µM

Record O=C(NCCC1CNc2ccccc21)OCc1ccccc1 (stereo not drawn) , field TGI: > 100 µM

Query `COC1(OC)CCc2c(sc3ncnc(Nc4cccc(Br)c4)c23)C1` yields TGI of > 100 µM

Field TGI (entry `CN(NC1=NCCO1)c1ccc2ccccc2c1` ) reads > 100 µM

###

Tested on: KM12 colon
experimental_protocol: NCI tumour cell line growth inhibition, 48 h
Exercise: for every item that follows, state its recorded TGI.

The measured TGI associated with `COc1ccc(-c2[nH]c3ccc(OC)cc3c2C=C(C#N)C#N)cc1` reads > 100 µM

The compound identified as C1CSCCSCCCS[C@@H]2CCCCC2SC1 (stereo partly drawn) registered its TGI at > 100 µM

TGI reported for this compound C[C@H]1CC[C@@]2(OC1)O[C@H]1C[C@H]3[C@@H]4CC[C@@H]5C[C@@H](OC6OC(CO)C(O)C(O)C6OC6OC(CO)C(O)C(O)C6O)CC[C@]5(C)[C@H]4CC[C@]3(C)[C@H]1[C@@H]2C (stereo partly drawn) : 4.62 µM

Given item `COc1cc2nc(Cl)nc(NS(=O)(=O)c3cc4ccccc4s3)c2cc1OC` , the value recorded as its TGI is 51.2 µM

Per the record, `Nc1nccc(-c2c(-c3ccc(F)cc3)nn3cc(C(F)(F)F)ccc23)n1` has TGI of > 25 µM

Per the record, `CN(C)c1ccc(-c2cc(-c3ccc(Nc4nc(Nc5ccc(Cl)cc5)nc(Nc5ccc(Cl)cc5)n4)cc3)nc(N)c2C#N)cc1` has TGI of > 100 µM

Field TGI (entry COC(=O)C1CCC(=O)N1CN(C(C)=O)c1cccc(O)c1 (stereo not drawn) ) reads > 100 µM

TGI for `O=C1c2cc3c(cc2-c2c1c1ccc(Cl)cc1c(=O)n2C[C@H](O)CO)OCO3` is 0.618 µM

Reported TGI of `COC(CN(C)C(=S)Nc1cccc2ccccc12)OC` : > 10 µM

// TGI lookup, compound = `C=CCON(C(=O)OC(C)(C)C)C(C)(C)C` , result: > 100 µM

The compound listed as COC(=O)c1cc(S(=O)(=O)NC2=NCC(C)NN2)c(S)cc1Cl (stereo not drawn) has a reported TGI of > 100 µM

Form: compound = `N#Cc1sc2nc3ccccc3n2c1N` ; TGI = 23.6 µM

// recorded TGI for `CCc1cccc(CC)c1NC(=O)/C(Cl)=C(/Cl)C(=O)O` : > 100 µM

Sourced from PubChem BioAssay (NCI)
